Just for reference, ChEMBL document CHEMBL4513146 is where these values come from.

Test system: Klebsiella pneumoniae
Details: Concentration 32 ug.mL-1;; ASSAY_TEST Inhibition of Bacterial Growth; detection method Absorption (OD600); MEDIA CAMHB; plate type 384well; NBS; CORNING #3640; time 18 hr
Description: Antibacterial activity against Klebsiella pneumoniae MDR ATCC 70063 (CO-ADD:GN_003); MIC in CAMBH media using NBS plates, by OD(600)
Measured potencies and affinities stand elsewhere.

{"Molecular string": "CC(C)Cc1ccc(S(=O)(=O)Nc2ccc3nncn3n2)cc1", "Inhibition / %": 8.3}
{"Molecular string": "O=C(CSc1nnc2c3cc(-c4ccc(F)cc4)nn3ccn12)NCc1ccc(Cl)cc1", "Inhibition / %": 0.77}
{"Molecular string": "CCc1ccccc1Sc1nccn2c(=O)n(CC(=O)N3CCN(c4ccccc4)CC3)nc12", "Inhibition / %": -1.73}
{"Molecular string": "CCOc1cccc(CNC(=O)CCc2nnc3ccc(-c4ccc(C)cc4)nn23)c1", "Inhibition / %": 8.62}
{"Molecular string": "O=C(Cn1nc2c3cc(-c4ccc(F)cc4)nn3ccn2c1=O)Nc1ccc(Br)cc1", "Inhibition / %": 2.07}
{"Molecular string": "C=Cc1ccc(Cn2nc3c(=O)n(-c4cccc(Cl)c4C)ccn3c2=O)cc1", "Inhibition / %": -0.98}
{"Molecular string": "Cc1nnc2c(S(=O)(=O)N(Cc3ccccc3F)c3ccc(C(C)C)cc3)cccn12", "Inhibition / %": 0.43}
{"Molecular string": "COc1cc(NC(=O)Cn2nc3c(SC4CCCCC4)nccn3c2=O)cc(OC)c1", "Inhibition / %": 18.11}
{"Molecular string": "Cc1ccc(N(CC(=O)OC(C)(C)C)S(=O)(=O)c2ccc3nnc(C)n3c2)cc1", "Inhibition / %": 4.9}
{"Molecular string": "O=C(Cn1nc2c3c4c(sc3ncn2c1=O)CCCC4)NCc1ccc(F)cc1", "Inhibition / %": 9.92}
{"Molecular string": "CC(C)c1ccc(NC(=O)Cn2nc3c(N4CCCC4)nccn3c2=O)cc1", "Inhibition / %": 11.79}
{"Molecular string": "Cc1c(Cl)cccc1-n1ccn2c(=O)n(Cc3cccc(Cl)c3)nc2c1=O", "Inhibition / %": 5.86}
{"Molecular string": "CN(C)c1nc2ccccc2n2c(=O)n(CC(=O)Nc3ccc4c(c3)OCO4)nc12", "Inhibition / %": 0.98}
{"Molecular string": "Cc1ccc(N(Cc2cc(F)cc(F)c2)S(=O)(=O)c2cccn3c(C)nnc23)cc1", "Inhibition / %": 11.68}
{"Molecular string": "COc1cccc(Oc2nccn3c(=O)n(CC(=O)NCc4ccc(SC)cc4)nc23)c1", "Inhibition / %": 15.38}
{"Molecular string": "CCOC(=O)c1ccc(NC(=O)Cn2nc3ccc(Sc4cccc(F)c4)nn3c2=O)cc1", "Inhibition / %": 10.14}
{"Molecular string": "COc1ccc(-c2cc3c4nnc(SCC(=O)NCc5ccccc5Cl)n4ccn3n2)cc1", "Inhibition / %": 6.77}
{"Molecular string": "CCc1cccc(NC(=O)Cn2nc3ccc(SC4CCCCC4)nn3c2=O)c1", "Inhibition / %": 16.99}
{"Molecular string": "COc1cc(NC(=O)Cn2nc3c(Oc4ccccc4)nccn3c2=O)cc(OC)c1", "Inhibition / %": 11.9}
{"Molecular string": "Cc1ccc2c(c1)N(C(=O)Cn1nc3ccc(SC(C)(C)C)nn3c1=O)CCO2", "Inhibition / %": 14.93}
{"Molecular string": "Cc1ccc(Oc2nccn3c(=O)n(CC(=O)Nc4ccc(C)cc4Cl)nc23)cc1", "Inhibition / %": 4.57}
{"Molecular string": "CCc1nnc2c(=O)n(CC(=O)Nc3ccc4c(c3)OCCO4)c3ccccc3n12", "Inhibition / %": 1.64}
{"Molecular string": "Cn1c(=O)c2sccc2n2c(=O)n(CCOc3ccccc3)nc12", "Inhibition / %": 1.76}
{"Molecular string": "COc1ccc(CCn2c(=O)c3sccc3n3c(=O)n(CC(=O)c4ccccc4)nc23)cc1OC", "Inhibition / %": 16.06}
{"Molecular string": "CC(C)Sc1ccc2nn(CC(=O)Nc3ccc(Cl)cc3F)c(=O)n2n1", "Inhibition / %": 7.97}
{"Molecular string": "CC(C)c1nnc2c(SCC(=O)Nc3ccc(Br)cc3)nc3ccccc3n12", "Inhibition / %": 6.82}
{"Molecular string": "N#Cc1ccc(NC(=O)CSc2nnc3c4cc(-c5ccc(F)cc5)nn4ccn23)cc1", "Inhibition / %": 11.54}
{"Molecular string": "O=C(Cn1nc2ccc(-c3ccccc3)nn2c1=O)Nc1ccc(F)c(Cl)c1", "Inhibition / %": 7.19}
{"Molecular string": "COc1cccc(CNC(=O)CSc2nnc3c(=O)n(-c4ccccc4)ccn23)c1OC", "Inhibition / %": 8.24}
{"Molecular string": "CC(C)NC(=O)CSc1nnc2c(=O)n(-c3ccccc3)ccn12", "Inhibition / %": 11.98}
{"Molecular string": "O=C(Cn1nc2ccc(SC3CCCCC3)nn2c1=O)Nc1ccc(F)c(F)c1", "Inhibition / %": 13.05}
{"Molecular string": "CCOC(=O)c1ccc(NC(=O)Cn2nc3c4sc(N5CCCC5)nc4ncn3c2=O)cc1", "Inhibition / %": -7.55}
{"Molecular string": "COc1cc(NC(=O)Cn2nc3ccc(C(=O)NCc4ccccc4)cn3c2=O)cc(OC)c1OC", "Inhibition / %": 1.38}
{"Molecular string": "Cc1cccc(N(Cc2cccc(Cl)c2)S(=O)(=O)c2cccn3c(C)nnc23)c1", "Inhibition / %": 4.74}
{"Molecular string": "Cc1ccc(Sc2nccn3c(=O)n(CC(=O)Nc4cc(Cl)ccc4C)nc23)c(C)c1", "Inhibition / %": -1.75}
{"Molecular string": "Cc1ccc(-c2cc3c4nn(CC(=O)Nc5cc(F)ccc5C)c(=O)n4ccn3n2)cc1C", "Inhibition / %": 2.94}
{"Molecular string": "Cc1nnc2ccc(S(=O)(=O)N(Cc3cccc(F)c3)c3ccc(Cl)cc3)cn12", "Inhibition / %": 10.33}
{"Molecular string": "Cc1nnc2ccc(S(=O)(=O)N(Cc3ccccc3F)c3ccc(F)c(F)c3)cn12", "Inhibition / %": 9.72}
{"Molecular string": "CSc1ccc(CNC(=O)Cn2nc3c(N4CCN(c5ccccc5)CC4)nccn3c2=O)cc1", "Inhibition / %": 15.47}
{"Molecular string": "CCc1nnc2ccc(S(=O)(=O)N(Cc3cccc(OC)c3)c3cccc(F)c3)cn12", "Inhibition / %": 10.63}

###

Test system: Cryptococcus neoformans
Details: Concentration 32 ug.mL-1; ASSAY_TEST Inhibition of Fungal Growth; detection method Resazurin; Absorption (OD600-OD570); plate type 384well; NBS; CORNING #3640
Description: Antifungal activity against Cryptococcus neoformans H99 ATCC 208821 (CO-ADD:FG_002); MIC in YNB media using NBS plates, by Resazurin OD(600-570)
Entries with a potency or affinity are not part of this list.
Below: a set of entries, each annotated with reported Inhibition.
Measurement label: Inhibition

{"Molecular string": "Cc1ccccc1CN(c1ccc(C(C)C)cc1)S(=O)(=O)c1cccn2c(C)nnc12", "Measurement label": "Inhibition", "Observed result": "-10.58%"}
{"Molecular string": "COc1ccc(NC(=O)c2ccc3nn(CC(=O)Nc4ccccc4C(F)(F)F)c(=O)n3c2)cc1", "Measurement label": "Inhibition", "Observed result": "-8.24%"}
{"Molecular string": "COc1ccc(Cl)cc1NC(=O)CSc1nc2ccccc2n2c(C(C)C)nnc12", "Measurement label": "Inhibition", "Observed result": "-12.46%"}
{"Molecular string": "COc1ccc(NC(=O)Cn2nc3c4cc(-c5ccc(F)cc5)nn4ccn3c2=O)c(OC)c1", "Measurement label": "Inhibition", "Observed result": "-15.48%"}
{"Molecular string": "Cc1c(Cl)cccc1-n1ccn2c(=O)n(Cc3ccccc3Cl)nc2c1=O", "Measurement label": "Inhibition", "Observed result": "-12.25%"}

###

As shown below, each of these compounds has a reported Inhibition value.
System: Cryptococcus neoformans
Conditions: Concentration 32 ug.mL-1; ASSAY_TEST Inhibition of Fungal Growth; detection method Resazurin; Absorption (OD600-OD570); plate type 384well; NBS; CORNING #3640
Potency and affinity values are given separately.

{"Molecular string": "COC(=O)c1ccc(NC(=O)Cn2nc3c(Oc4ccccc4)nccn3c2=O)cc1", "Target or system": "Cryptococcus neoformans", "Inhibition (%)": -10.09}
{"Molecular string": "CCCn1c(=O)c2sccc2n2c(CCC(=O)NCCC34CC5CC(CC(C5)C3)C4)nnc12", "Target or system": "Cryptococcus neoformans", "Inhibition (%)": -25.69}
{"Molecular string": "Cc1ccc(-c2cc3c4nn(CC(=O)NCc5ccccc5Cl)c(=O)n4ccn3n2)cc1C", "Target or system": "Cryptococcus neoformans", "Inhibition (%)": -5.01}
{"Molecular string": "COc1cc(-c2nnc3c(=O)n(Cc4ccc(Cl)cc4)ccn23)cc(OC)c1OC", "Target or system": "Cryptococcus neoformans", "Inhibition (%)": -21.41}
{"Molecular string": "CCOc1ccc(-n2ccn3c(SCC(=O)c4ccc(C)cc4)nnc3c2=O)cc1", "Target or system": "Cryptococcus neoformans", "Inhibition (%)": -5.35}
{"Molecular string": "Cc1nnc2ccc(S(=O)(=O)N(Cc3ccccc3F)c3ccc(F)c(F)c3)cn12", "Target or system": "Cryptococcus neoformans", "Inhibition (%)": -9.63}
{"Molecular string": "O=C(Cn1nc2c(N3CCOCC3)nccn2c1=O)N1CCN(c2ccccc2F)CC1", "Target or system": "Cryptococcus neoformans", "Inhibition (%)": -5.23}
{"Molecular string": "CCN(CCCNC(=O)CCc1nnc2ccc(-c3ccc(C)c(C)c3)nn12)c1ccccc1", "Target or system": "Cryptococcus neoformans", "Inhibition (%)": -7.8}
{"Molecular string": "CSc1ccc(-c2noc(Cn3nc4ccc(-c5ccccc5)nn4c3=O)n2)cc1", "Target or system": "Cryptococcus neoformans", "Inhibition (%)": -6.64}
{"Molecular string": "Cc1ccccc1CN(c1ccc(C(C)C)cc1)S(=O)(=O)c1cccn2cnnc12", "Target or system": "Cryptococcus neoformans", "Inhibition (%)": -21.28}
